# Test system: HCV2aChLuc virus
# Experimental details: In vitro HCVcc entry assay: HCV2aChLuc virus infection of Huh7 cells, Renilla luciferase read-out
# Assay type: cell-based, HCV genotype 2a
# Condition summary: Hepatitis C virus, Huh-7, read-out: Activity class (IC50), tested according to the method of Example 3
Observed property: IC50

[Q] Entry COc1c(NC(=O)C(=O)c2ccc(Br)c3ccccc23)cc(C(C)(C)C)cc1C(=O)NC1CC1 : reported IC50 = ?
[A] < 5 nM

[Q] Returns the measured IC50 for the input compound. Input: CCNC(=O)c1cc(C(C)(C)C)cc(NC(=O)C(=O)c2ccc(OC)c3ccccc23)c1OC
[A] < 5 nM

[Q] Sample CCNC(=O)c1cc(C(C)(C)C)cc(NC(=O)C(=O)c2ccc(OCCN3CCOCC3)c3ccccc23)c1OC — what was its IC50?
[A] < 5 nM

[Q] Which IC50 reading was recorded for the compound COc1ccc(C(C)(C)C)cc1NC(=O)C(=O)c1ccc(Br)c2ccccc12 ?
[A] 5 to 500 nM

[Q] Find the recorded IC50 belonging to Cc1ccc(C)c(NC(=O)C(=O)c2ccc(OCCN3CCOCC3)c3ccccc23)c1 and report it.
[A] > 500 nM

[Q] I am curious: what IC50 value has been reported for CC(C)(C)c1cc(NC(=O)C(=O)c2ccc(OCCN3CCOCC3)c3ccccc23)[nH]n1 ?
[A] > 500 nM

[Q] Form field: reported IC50 of CC(C)(C)c1cc(NC(=O)C(=O)c2ccc(OCCN3CCOCC3)c3ccccc23)no1
[A] > 500 nM

[Q] If you can, please state the reported IC50 value of COc1c(C)cc(C(C)(C)C)cc1NC(=O)C(=O)c1ccc(OCCN2CCOCC2)c2ccccc12 .
[A] > 500 nM

[Q] What value of measured IC50 is listed for COc1ccc(-n2nc(C(C)(C)C)cc2NC(=O)C(=O)c2ccc(OCCN3CCOCC3)c3ccccc23)cc1 ?
[A] > 500 nM

[Q] Can you share its IC50? I mean this compound: COc1c(NC(=O)C(=O)c2ccc(OCCN3CCOCC3)c3ccccc23)cccc1NS(C)(=O)=O
[A] > 500 nM

[Q] # IC50 lookup, item COc1ccc(C2CCCCC2)cc1NC(=O)C(=O)c1ccc(OCCN2CCOCC2)c2ccccc12
[A] < 5 nM

[Q] Field request: IC50 | item: O=C(Nc1ccc2c(c1)OCCO2)C(=O)c1ccc(OCCN2CCOCC2)c2ccccc12
[A] > 500 nM

[Q] Entry COc1ccc(C(C)(C)C)cc1NC(=O)C(=O)c1ccc(-c2ccc(N(C)C)nc2)c2ccccc12 has what IC50?
[A] > 500 nM

[Q] I'd like to know its IC50. The compound in question is COc1c(NC(=O)C(=O)c2ccc(OCCN3CCOCC3)c3ccc(Cl)cc23)cc(C(C)(C)C)cc1NS(C)(=O)=O
[A] 5 to 500 nM

[Q] Which IC50 value belongs to COc1c(NC(=O)C(=O)c2ccc(OCCN3CCOCC3)c3ccccc23)cc(C(C)(C)C)cc1NC(=O)N1CCCC1 ?
[A] 5 to 500 nM

----------
# Tested on: HCV2aChLuc virus
# Experimental details: In vitro HCVcc entry assay: HCV2aChLuc virus infection of Huh7 cells, Renilla luciferase read-out
# Format: cell-based, HCV genotype 2a
# Condition summary: Hepatitis C virus, Huh-7, read-out: Activity class (IC50), tested according to the method of Example 3
pIC50: −log10 of the molar value.
Observed property: pIC50

[Q] Quick check: pIC50 on HCV2aChLuc virus, item COc1c(NC(=O)C(=O)c2ccc(Br)c3ccccc23)cc(C(C)(C)C)cc1NS(C)(=O)=O ?
[A] < 6.30

[Q] Please tell me: pIC50 of CC(C)(C)c1cccc(NC(=O)C(=O)c2ccc(OCCN3CCOCC3)c3ccccc23)c1 , system HCV2aChLuc virus?
[A] < 6.30

[Q] Identify the measured pIC50 of COc1ccc(C(C)(C)c2ccccc2)cc1NC(=O)C(=O)c1ccc(OCCN2CCOCC2)c2ccccc12 for HCV2aChLuc virus.
[A] > 8.30

[Q] Please tell me: pIC50 of CC1(C)[C@@H]2CC[C@@]1(C)[C@@H](NC(=O)C(=O)c1ccc(OCCN3CCOCC3)c3ccccc13)C2 , system HCV2aChLuc virus?
[A] < 6.30

[Q] Tell me reported pIC50 for CNc1ccc(-c2ccc(C(=O)C(=O)Nc3cc(C(C)(C)C)ccc3OC)c3ccccc23)cn1 , tested with HCV2aChLuc virus.
[A] > 8.30

[Q] Form: Entry = CNC(=O)c1sc(C(C)(C)C)cc1NC(=O)C(=O)c1ccc(OCCN2CCOCC2)c2ccccc12 | System = HCV2aChLuc virus | pIC50 = ____
[A] > 8.30

[Q] Kindly state the measured pIC50 obtained for COCCNC(=O)c1cc(C(C)(C)C)cc(NC(=O)C(=O)c2ccc(OCCN3CCOCC3)c3ccccc23)c1OC with HCV2aChLuc virus.
[A] > 8.30

[Q] Requested read-out pIC50, target or system HCV2aChLuc virus, entry CC(C)(C)c1cc(NC(=O)C(=O)c2ccc(OCCN3CCOCC3)c3ccccc23)c(O)c(C(N)=O)c1
[A] < 6.30

[Q] For the record COc1ccc(C(C)(C)C)cc1NC(=O)C(=O)c1ccc(OCCN2CCOCC2)c2ccccc12 , what value of pIC50 is listed for HCV2aChLuc virus?
[A] > 8.30

[Q] Notebook: pull reported pIC50 for HCV2aChLuc virus, entry Cc1ccc(-n2nc(C(C)(C)C)cc2NC(=O)C(=O)c2ccc(OCCN3CCS(=O)(=O)CC3)c3ccccc23)cc1
[A] < 6.30

[Q] Hello, I am looking for reported pIC50 with HCV2aChLuc virus for CC(C)(C)c1ccc(NC(=O)C(=O)c2ccc(OCCN3CCOCC3)c3ccccc23)cc1 . Could you help?
[A] < 6.30

[Q] Request body: readout pIC50, system HCV2aChLuc virus, query COc1c(NC(=O)C(=O)c2ccc(OCCN3CCOCC3)c3ccccc23)cc(C(C)(C)C)cc1-n1ccnn1 . Return the value.
[A] 6.30 to 8.30

[Q] What pIC50 appears in the records for this molecule with HCV2aChLuc virus? O=C(Nc1nc(Cl)ccc1[N+](=O)[O-])C(=O)c1ccc(OCCN2CCOCC2)c2ccccc12
[A] < 6.30

[Q] What reported pIC50 corresponds to CCOc1ccc(C(C)(C)C)cc1NC(=O)C(=O)c1ccc(OCCN2CCOCC2)c2ccccc12 on HCV2aChLuc virus?
[A] < 6.30

[Q] Lab note: need pIC50 for CC(C)(C)c1cc(N)nc(NC(=O)C(=O)c2ccc(OCCN3CCOCC3)c3ccccc23)n1 on HCV2aChLuc virus, anyone have it?
[A] < 6.30

[Q] What is its pIC50 for HCV2aChLuc virus? Entry: COc1c(NC(=O)C(=O)c2ccc(OCCN3CCOCC3)c3ccccc23)cc(C(C)(C)C)cc1-n1ccnc1
[A] 6.30 to 8.30

[Q] GET /values?readout=pIC50&system=HCV2aChLuc virus&item= COc1c(NC(=O)C(=O)c2ccc(Nc3ccnc(N4CCOCC4)n3)c3ccccc23)cc(C(C)(C)C)cc1C(N)=O
[A] < 6.30

[Q] Which measured pIC50 belongs to COc1ccc(C(F)(F)F)cc1NC(=O)C(=O)c1ccc(OCCN2CCOCC2)c2ccccc12 , tested on HCV2aChLuc virus?
[A] < 6.30

[Q] What pIC50 appears in the records for this molecule with HCV2aChLuc virus? O=C(N[C@@H]1C[C@H]2CC[C@@H]1C2)C(=O)c1ccc(OCCN2CCOCC2)c2ccccc12
[A] < 6.30

[Q] Given the entry CC(C)(C)c1cc(NC(=O)C(=O)c2ccc(OCCN3CCOCC3)c3ccccc23)cc(NS(C)(=O)=O)c1 , what pIC50 was observed with HCV2aChLuc virus?
[A] 6.30 to 8.30

[Q] What pIC50 appears in the records for this molecule with HCV2aChLuc virus? O=C(Nc1ccc2c(c1)CCC2)C(=O)c1ccc(OCCN2CCOCC2)c2ccccc12
[A] < 6.30

[Q] What value of pIC50 on HCV2aChLuc virus does COCCOCCOc1ccc(C(=O)C(=O)Nc2cc(C(C)(C)C)cc(NS(C)(=O)=O)c2OC)c2ccccc12 have?
[A] < 6.30

[Q] For HCV2aChLuc virus, provide pIC50 of COc1c(NC(=O)C(=O)c2ccc(OCCN3CCOCC3)c3ccccc23)cc(C(C)(C)C)cc1C(=O)NC1CCNCC1 please.
[A] < 6.30

[Q] Value wanted: pIC50 (HCV2aChLuc virus) of entry COc1c(NC(=O)C(=O)c2ccc(OCC[N+]3([O-])CCOCC3)c3ccccc23)cc(C(C)(C)C)cc1NS(C)(=O)=O
[A] 6.30 to 8.30

[Q] What measured pIC50 is associated with COc1c(NC(=O)C(=O)c2ccc(OCCN3CCN(C)CC3)c3ccccc23)cc(C(C)(C)C)cc1NS(C)(=O)=O on HCV2aChLuc virus?
[A] < 6.30

[Q] Notebook entry, HCV2aChLuc virus assay: pIC50 of COc1c(NC(=O)C(=O)c2ccc(OCCN3CCOCC3)c3ccccc23)cc(C(C)(C)C)cc1C(=O)NC1CCN(C)CC1 = ?
[A] < 6.30

[Q] Query for HCV2aChLuc virus: what pIC50 does the record show for CCCNC(=O)c1cc(C(C)(C)C)cc(NC(=O)C(=O)c2ccc(OCCN3CCOCC3)c3ccccc23)c1OC ?
[A] > 8.30

[Q] Record COc1c(C#N)cc(C(C)(C)C)cc1NC(=O)C(=O)c1ccc(-c2ccc(NCCC(C)(C)C)nc2)c2ccccc12 : what is its pIC50 with HCV2aChLuc virus?
[A] < 6.30

[Q] Request body: readout pIC50, system HCV2aChLuc virus, query CCOC(=O)N1CCN(CCOc2ccc(C(=O)C(=O)Nc3cc(C(C)(C)C)cc(NS(C)(=O)=O)c3OC)c3ccccc23)CC1 . Return the value.
[A] 6.30 to 8.30
